System: DIV17
assay explanation: qHTS profiling for inhibitors of Plasmodium falciparum proliferation (AID 504749); further: nearly all actives have a fitted effect of over 60% in size
condition details: P. falciparum in erythrocytes, SYBR Green DNA, 72 h; series mostly up to 28.7 µM
Results filed as inconclusive are left out. Activity calls are given as the source filed them. The call rests on the fitted dose curve; in most records, active means well fitted inhibition curve with a large enough effect; inconclusive means small, poorly fitted or top-dose-only effect; inactive means flat fitted curve, though single readings scatter.
API: response.call in active, inactive

Hi, sorry to bother you, what did the test record for OC[C@@H](O)C(O[C@@H]1O[C@@H](CO)[C@H](O)[C@H](O)[C@H]1O)[C@H](O)[C@@H](O)CO (some centres undefined) ?
inactive

Lab log entry: C[N+]12CCCC[C@@H]1CCC(=C(c1cccs1)c1cccs1)C2 (some centres undefined) — outcome as called in the assay?
active

Which result was noted for this compound in the test: OC[C@@H]1O[C@](CO)(O[C@H]2O[C@H](CO)[C@@H](O)[C@H](O)[C@H]2O)[C@H](O)[C@H]1O
inactive

Dear colleague, could you share the recorded outcome for CCCCC/C(C=O)=C/c1ccccc1 when you have a moment?
inactive

Which result was noted for this compound in the test: C[n+]1c2cc(N)ccc2cc2ccc(N)cc21
active

Look up the recorded call for CC[C@H]1OC(=O)[C@H](C)C(=O)[C@H](C)[C@@H](OC2O[C@H](C)C[C@H](N(C)C)[C@@H]2O)[C@@](C)(OC)C[C@@H](C)C(=O)[C@@H](C)C2N(CCCCn3cnc(-c4cccnc4)c3)C(=O)O[C@@]21C (some centres undefined) in this test.
active

For O=C1NC(=O)C2C3C=CC(C3)C12 (centres undefined) , which call appears in the assay record?
inactive

What did the test return for COC(c1ccccc1)(c1ccccc1)C(Oc1nc(C)cc(C)n1)C(=O)O (centres undefined) ?
inactive

Please state the recorded outcome for this compound: N#C/C(=C1/SCC(c2ccccc2Cl)S1)n1ccnc1 (centres undefined)
inactive

###

System: TAB165
assay explanation: qHTS profiling for inhibitors of Plasmodium falciparum proliferation (AID 504749); further: nearly all actives have a fitted effect of over 60% in size; further: potency means the concentration at half of the fitted maximal effect
condition details: P. falciparum in erythrocytes, SYBR Green DNA, 72 h; series mostly up to 28.7 µM
Records with an inconclusive call do not appear. Activity calls are given as the source filed them. The call rests on the fitted dose curve; in most records, active means well fitted inhibition curve with a large enough effect; inconclusive means small, poorly fitted or top-dose-only effect; inactive means flat fitted curve, though single readings scatter.
measured endpoint: Potency

Below: 6 compounds and their reported Potency.
compound | measurement target | Potency
NC[C@@H]1O[C@H](OC2[C@@H](CO)O[C@@H](OC3[C@H](O)[C@H](N)C[C@H](N)[C@H]3OC3O[C@H](CO)[C@@H](O)[C@H](O)[C@@H]3N)[C@H]2O)C(N)[C@H](O)[C@@H]1O (some centres not stated) | TAB165 | inactive
Clc1ccc(CS[C@@H](Cn2ccnc2)c2ccc(Cl)cc2Cl)cc1 | TAB165 | 708 nM (active)
CC(C)(C)NC[C@H](O)CSc1nc(-c2ccc(C(N)=O)s2)cs1 | TAB165 | inactive
C[C@]12CC[C@@H]3c4ccc(O)cc4C[C@@H](CCCCCCCCCS(=O)CCCC(F)(F)C(F)(F)F)C3[C@@H]1CC[C@@H]2O (some centres not stated) | TAB165 | 2240 nM (active)
CC1(C)CC1C(=O)N/C(=C/CCCCSCC(N)C(=O)O)C(=O)O (configuration not stated) | TAB165 | inactive
C[C@H]1[C@@H](OC(=O)CCC(=O)O)OC2OC3(C)CC[C@H]4[C@H](C)CC[C@@H]1[C@@]24OO3 (some centres not stated) | TAB165 | 1.8 nM (active)

Read the next record carefully.
Return Potency (reported value) for this compound: CNC1CCc2cc(OC)c(OC)c(OC)c2-c2ccc(OC)c(=O)cc21 (configuration not stated)
inactive

###

Tested on: CP185
assay explanation: qHTS profiling for inhibitors of Plasmodium falciparum proliferation (AID 504749); further: nearly all actives have a fitted effect of over 60% in size
condition details: P. falciparum in erythrocytes, SYBR Green DNA, 72 h; series mostly up to 28.7 µM
Inconclusive results are not listed. The source made the active and inactive calls. Calls follow the shape of the dose curve; as a rule, active = well fitted inhibition curve with a large enough effect; inconclusive = small, poorly fitted or top-dose-only effect; inactive = flat fitted curve, though single readings scatter.
measured endpoint: outcome

Solved cases below.
molecule | outcome
CC1(C)O[C@@H]2C[C@H]3[C@@H]4CCC5=CC(=O)C=C[C@]5(C)[C@H]4C(O)C[C@]3(C)[C@]2(C(=O)CO)O1 (stereo partly specified) | inactive
COc1ccc(C(=O)/C(Br)=C/C(=O)O)cc1 | inactive
OCCOC[C@H]1O[C@H](OCCO)[C@H](OCCO)[C@@H](OCCO)[C@@H]1OCCO (tested in a mixture with another compound) | inactive
Cc1onc(-c2c(F)cccc2Cl)c1C(=O)NC1C(=O)N2C1SC(C)(C)C2C(=O)O (stereo unspecified) | inactive
C#C[C@@]1(O)CC[C@@H]2[C@H]3CCC4=C/C(=N\O)CC[C@H]4[C@@H]3CC[C@]21CC | inactive

We now examine a further molecule.
Answer with reported outcome of OCC(O)C(O)C(O)C(O)CO (stereo unspecified)
inactive

###

System: CP266
assay explanation: qHTS profiling for inhibitors of Plasmodium falciparum proliferation (AID 504749); further: nearly all actives have a fitted effect of over 60% in size
condition details: P. falciparum in erythrocytes, SYBR Green DNA, 72 h; series mostly up to 28.7 µM
Results filed as inconclusive are left out. Calls of active or inactive are those of the source. Calls follow the shape of the dose curve; as a rule, active = well fitted inhibition curve with a large enough effect; inconclusive = small, poorly fitted or top-dose-only effect; inactive = flat fitted curve, though single readings scatter.
Outcome field: choose from active, inactive

molecule | answer label
O=[N+]([O-])O[C@H]1CO[C@H]2[C@@H]1OC[C@H]2O | inactive
CC(O)C1CCC2C3CCC4CC(O)CCC4(C)C3CCC12C (stereo unspecified) | inactive
CO/N=C(/C(=O)N[C@@H]1C(=O)N2C(C(=O)O)=C(CSc3nc(C)c(CC(=O)O)s3)CS[C@H]12)c1csc(N)n1 | inactive
COc1cccc2c1C(=O)c1c(O)c3c(c(O)c1C2=O)C[C@@](O)(C(=O)CO)C[C@@H]3OC1CC(N)C(O)C(C)O1 (stereo partly specified) | active
C=CC1CN2CCC1CC2[C@@H](O)c1ccnc2ccc(OC)cc12 (stereo partly specified) | active

Would you mind telling me which call this test gave CCCC[C@H](O)c1ccccc1 ?
inactive

Can you look up the reported call for CCCC[C@H]1C(=O)N(c2ccccc2)N(c2ccc(O)cc2)C1=O for me?
inactive

###

assay explanation: AP1 Signaling Pathway (AID 357);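 further: ME-180 reporter cells stimulated with EGF at its EC50 level; on the % scale 0 is the no-effect control and ±100 the full control effect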
condition details: ME-180 (cervical carcinoma) AP-1-bla reporter, EGF-induced, beta-lactamase ratio, 5 h; at 17.2 µM (top of the series) unless noted
Results filed as inconclusive are left out.
// activity change, negative = inhibition lookup, one value per entry
Only the number, expressed in %, is required.

molecule | measured endpoint | test value
O=C(O)C1CSC(CCc2ccccc2)N1 (configuration not stated) | activity change, negative = inhibition | 19.9
COC(=O)C(NC(=O)c1ccccc1)(Nc1nc(C)cs1)C(F)(F)F (configuration not stated) | activity change, negative = inhibition | 20
Cn1c(N)c(C#N)c2c(c1=S)CSC(C)(C)C2 | activity change, negative = inhibition | 1.02
O=C1C2ON(c3ccccc3)C(c3cccnc3)C2C(=O)N1c1ccccc1 (configuration not stated) | activity change, negative = inhibition | -5.35
Cn1c(CSc2ncn[nH]2)nc2ccccc21 | activity change, negative = inhibition | -5.65
COc1cccc2c1C(=O)c1c(O)c3c(c(O)c1C2=O)C[C@](O)(C(C)=O)C[C@H]3O[C@@H]1C[C@H](N)[C@H](O)[C@H](C)O1 | activity change, negative = inhibition | -116

Fill in reported activity change, negative = inhibition for this entry: O=C(NC1CCS(=O)(=O)C1)N1CCCCC1 (configuration not stated)
-10.9

Return activity change, negative = inhibition (reported value) for this molecule: O=C1C2ON(c3ccccc3)C(c3cccnc3)C2C(=O)N1Cc1ccccc1 (configuration not stated)
-15.2

###

System: CP329
assay explanation: qHTS profiling for inhibitors of Plasmodium falciparum proliferation (AID 504749); further: nearly all actives have a fitted effect of over 60% in size
condition details: P. falciparum in erythrocytes, SYBR Green DNA, 72 h; series mostly up to 28.7 µM
Inconclusive results are not listed. Active and inactive are the calls of the source. Calls follow the shape of the dose curve; as a rule, active = well fitted inhibition curve with a large enough effect; inconclusive = small, poorly fitted or top-dose-only effect; inactive = flat fitted curve, though single readings scatter.
Outcome field: choose from active, inactive

Solved entries (count: 4):
compound | measurement target | answer label
CCN1CCN(C(=O)NC(C(=O)NC2C(=O)N3C(C(=O)O)=C(CSc4nnnn4C)CSC23)c2ccc(O)cc2)C(=O)C1=O (stereo not given) | CP329 | inactive
CC(C)(C)NC[C@H](O)CSc1nc(-c2ccc(C(N)=O)s2)cs1 | CP329 | inactive
CC(=O)C1(O)Cc2c(O)c3c(c(O)c2C(OC2CC(N)C(O)C(C)O2)C1)C(=O)c1c(O)cccc1C3=O (stereo not given) | CP329 | active
CCCCCCCCCCCC(=O)OCC(O)C1OCC(O)C1O (stereo not given) | CP329 | inactive

What did this assay record as the result for O=C1CC[C@H](C(=O)N[C@@H]2C[C@H]2c2ccccc2)N1 ?
inactive

Query: recorded result category for CCCCC/C(C=O)=C/c1ccccc1 in this test
inactive

What did the test return for CC(C)C[C@@H](NC(=O)[C@@H](Cc1ccccc1)NC(=O)c1cnccn1)B(O)O ?
active

What did this assay record as the result for CC(CN1CC(=O)NC(=O)C1)N1CC(=O)NC(=O)C1 (stereo not given) ?
inactive

// outcome(item) with item = COC(=O)C1C2CC3c4[nH]c5cc(OC)ccc5c4CCN3CC2CC(OC)C1OC (stereo not given)
inactive

What did the test return for C[C@@H]1CC2C3CCC4=CC(=O)C=C[C@]4(C)[C@@]3(F)[C@@H](O)C[C@]2(C)[C@@]1(O)C(=O)COC(=O)c1cccc(S(=O)(=O)O)c1 (stereo not given in full) ?
inactive

How did this test come out for Oc1cc2cc(CCN3CCN(c4nsc5ccccc45)CC3)c(Cl)cc2[nH]1 ?
inactive

Record lookup: outcome of this test for OCCN1CC(O)C(O)C(O)C1CO (stereo not given) ?
inactive
